- measured.target: Protein-arginine deiminase type-4 (Homo sapiens) (UniProt Q9UM07)
- Sequence (Q9UM07 whole entry, looked up): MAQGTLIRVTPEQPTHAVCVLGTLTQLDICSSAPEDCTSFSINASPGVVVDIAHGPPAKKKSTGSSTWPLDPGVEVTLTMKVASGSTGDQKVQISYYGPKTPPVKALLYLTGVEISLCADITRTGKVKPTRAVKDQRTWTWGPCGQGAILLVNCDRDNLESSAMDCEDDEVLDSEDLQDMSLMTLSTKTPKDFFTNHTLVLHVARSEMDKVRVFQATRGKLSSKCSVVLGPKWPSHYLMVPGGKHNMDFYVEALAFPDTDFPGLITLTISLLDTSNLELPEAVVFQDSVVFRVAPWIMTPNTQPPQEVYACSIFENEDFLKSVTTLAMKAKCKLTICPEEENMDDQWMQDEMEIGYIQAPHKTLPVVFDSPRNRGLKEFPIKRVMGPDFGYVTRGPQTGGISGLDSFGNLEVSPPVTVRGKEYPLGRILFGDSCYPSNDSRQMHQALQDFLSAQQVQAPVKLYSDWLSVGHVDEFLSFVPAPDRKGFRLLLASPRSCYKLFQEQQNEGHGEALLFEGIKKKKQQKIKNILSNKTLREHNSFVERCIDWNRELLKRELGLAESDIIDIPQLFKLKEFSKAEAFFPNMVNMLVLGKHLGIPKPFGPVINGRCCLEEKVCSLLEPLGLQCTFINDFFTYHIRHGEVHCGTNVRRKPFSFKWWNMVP
- assay.method.text: blockers of protein arginine deiminase 4 – biochemical, fluorescence polarization, primary screen (AID 463073);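 note: 0% = PAD4 with DMSO and 100% = wells lacking PAD4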
- condition.details: recombinant PAD4, RFA probe fluorescence polarization; at 5 µM; hits give high values
Hit rate of the full screen: of about 2,000 compounds, about 10 (0.5%) were called active. What follows is part of a selection rich in actives, with near analogues and random picks from the rest. Residues, ends and D or L forms follow the SMILES beside them. *: point of attachment. Boc = CC(C)(C)OC(=O)*
For each entry below, report its inhibition value.
Numbers only, in %.

Below are worked cases with known answers.
{"molecule": "C[C@]12CC[C@@H]3c4ccc(O)cc4[C@@H](O)C[C@H]3[C@@H]1CC[C@@H]2O", "measured.value": 2.58}
{"molecule": "COc1ccc(N2C(=O)C3CCCN3C2=O)cc1 (stereo unspecified)", "measured.value": 4.89}
{"molecule": "CC1(C)Cc2nc3oc4c(NCc5ccccc5)ncnc4c3cc2CO1", "measured.value": 1.79}
{"molecule": "CCNC(=O)c1sc2cc(C)ccc2c1Cl", "measured.value": 0.99}
{"molecule": "Cc1ccc(C(=O)NCCNC(=O)c2ccccc2)cc1", "measured.value": -2.16}
{"molecule": "CC(C)NC(=O)c1ccc(C(C)C)cc1", "measured.value": -2.74}
{"molecule": "CCOC(=O)C1NN=C(C(=O)c2ccccc2)C1c1ccc(Cl)cc1 (stereo unspecified)", "measured.value": 1.88}
{"molecule": "OCC(O)CN1CCN(c2ccccc2)CC1 (stereo unspecified)", "measured.value": -2.45}
{"molecule": "O=C1OC(Nc2ccc3c(c2)OCO3)c2ccccc21 (stereo unspecified)", "measured.value": 3.54}
{"molecule": "CC(C)CN1CCN(Cc2ccc3ncccc3c2)CC1CCO (stereo unspecified)", "measured.value": 5.67}

Give me inhibition for each of these molecules, listed below.
1. CC(C)Cc1cc(C(=O)N2CCC(N3CCC(C(=O)N4CCCC4)CC3)CC2)n[nH]1
2. O=C(c1ccccc1)N1CCN(C(=O)c2ccccc2)CC1
3. CC(C)CC(NC(=O)C1CCCN1C(=O)OC(C)(C)C)C(=O)NCC(N)=O (stereo not drawn) (Boc-Pro-Leu-Gly-NH2; configuration not given here)
4. CC(=O)CCc1c(C)c2cccc(C)c2[nH]c1=O
5. COc1ccc2c(C=O)cn(C)c2c1
6. CC12CCC(C(=O)Nc3ccccc3Br)(C/C1=N\O)C2(C)C (stereo unspecified)

## Output
1: 1.19; 2: -0.13; 3: 0.39; 4: 2.48; 5: -2.41; 6: 2.8

* * *

For each entry below, report its inhibition value.
- measured.target: Protein-arginine deiminase type-4 (Homo sapiens)
- assay.method.text: blockers of protein arginine deiminase 4 – biochemical, fluorescence polarization, primary screen (AID 463073);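 note: 0% = PAD4 with DMSO and 100% = wells lacking PAD4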
- condition.details: recombinant PAD4, RFA probe fluorescence polarization; at 5 µM; hits give high values
Out of some 2,000 compounds screened, about 10 (0.5%) were called active. This is one part of a sample in which actives are shown more often than they occur.
One number for each entry, in %.

{"molecule": "CC(NC(=O)c1ccc(OC2CCN(Cc3ccccn3)CC2)cc1)c1ccccc1 (centres undefined)", "property.measured": "inhibition", "measured.value": -1.87}

Give me inhibition for each of these molecules, listed below.
1. O=C1CC[C@@H](CN(Cc2ccccc2)Cc2cn[nH]c2-c2cc3ccccc3o2)N1
2. CSCCC(NC(=O)/C(=C/c1ccc2c(c1)OCO2)NC(=O)c1cccc([N+](=O)[O-])c1)C(=O)O (centres undefined)
3. CCOC(=O)C(NC(=O)CCC(=O)Nc1ccc(S(N)(=O)=O)cc1)C(O)c1ccccc1 (centres undefined)
4. CSCCC(NC(=O)OC(C)(C)C)C(=O)Oc1ccc2c(=O)c(-c3ccc4c(c3)OCCO4)coc2c1 (centres undefined)
5. CCCCCCCC(=O)OCC(=O)[C@@]1(O)CC[C@H]2[C@@H]3CCC4=CC(=O)CC[C@]4(C)[C@H]3[C@@H](O)C[C@@]21C

## Output
-4.5
-0.41
-0.41
14.1
4.58

Give me inhibition for each of these molecules, listed below.
1. CN1CCCN=C1COC(=O)C(O)(c1ccccc1)C1CCCCC1 (centres undefined)
2. O=C(NCCC(c1ccccc1)c1ccco1)c1cccs1 (centres undefined)
3. C=CCNC(=S)N1CCc2c([nH]c3ccccc23)C1C (centres undefined)

## Output
-4.01
-4.26
-0.07

* * *

- measured.target: Protein-arginine deiminase type-4 (Homo sapiens) (UniProt Q9UM07)
- assay.method.text: blockers of protein arginine deiminase 4 – biochemical, fluorescence polarization, primary screen (AID 463073);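 note: 0% = PAD4 with DMSO and 100% = wells lacking PAD4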
- condition.details: recombinant PAD4, RFA probe fluorescence polarization; at 5 µM; hits give high values
About 10 (0.5%) of roughly 2,000 compounds were called active. The list comes from a sample in which actives are over-represented; it also holds close analogues and randomly drawn compounds.
property.measured: inhibition (%)
Numbers only, in %.

{"compound": "CCn1c(O)c(/C=C2\\C=Nc3ccccc32)sc1=O", "units.symbol": "%", "inhibition": 6.23}
{"compound": "Cc1ccc(S(=O)(=O)NC(C(=O)Oc2ccc3c(C(F)(F)F)cc(=O)oc3c2)c2ccccc2)cc1 (stereo unspecified)", "units.symbol": "%", "inhibition": 6.06}
{"compound": "COc1ccc2c(c1)C(=O)CC(c1ccccc1F)O2 (stereo unspecified)", "units.symbol": "%", "inhibition": -3.92}
{"compound": "Nc1nnc(CSCc2ccc(Cl)cc2Cl)s1", "units.symbol": "%", "inhibition": 3.81}
{"compound": "Clc1ccc2c(c1)[C@H]1OCC[C@H]1[C@@H](c1ccco1)N2", "units.symbol": "%", "inhibition": 1.39}

## Input Field request: inhibition | item: CC12CCC(C(=O)NNc3ccccc3)(C(=O)C1=O)C2(C)C (stereo unspecified)
## Output -2.07

* * *

- measured.target: Protein-arginine deiminase type-4 (Homo sapiens)
- assay.method.text: blockers of protein arginine deiminase 4 – biochemical, fluorescence polarization, primary screen (AID 463073);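 note: 0% = PAD4 with DMSO and 100% = wells lacking PAD4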
- condition.details: recombinant PAD4, RFA probe fluorescence polarization; at 5 µM; hits give high values
Hit rate of the full screen: of about 2,000 compounds, about 10 (0.5%) were called active. The sample as a whole holds a higher share of actives than the screen did.
For each entry below, report its inhibition value.
Give bare numbers, in %.

Below are worked cases with known answers.
{"compound": "COc1ccc(C2NC(C(=O)O)Cc3c2[nH]c2ccccc32)cc1CN1CCN(c2ccc(F)cc2)CC1 (stereo not given)", "inhibition / %": 6.02}
{"compound": "COc1cc2c(cc1OC)C(c1ccccc1)=NCC2", "inhibition / %": 3.38}
{"compound": "CCOC(=O)C(NC(C)=O)C(O)c1ccc([N+](=O)[O-])cc1 (stereo not given)", "inhibition / %": 3}
{"compound": "CC(C)NS(=O)(=O)c1ccc(OCC(=O)Nc2cccc(F)c2)cc1", "inhibition / %": 2.86}
{"compound": "Cc1cccc(C)c1NS(=O)(=O)c1ccc(NC(=O)c2ccc(Cl)c([N+](=O)[O-])c2)cc1", "inhibition / %": 5.98}

Give me inhibition for each of these compounds, listed below.
1. CC1(C)C(=O)OC(C(=O)c2ccc(Cl)cc2)C(C)(C)C1=O (stereo not given)
2. Cc1nc2cc3ccccc3cc2c(=O)[nH]1
3. CCN1CCn2c3c(c4cc(Cl)ccc42)CCCC31 (stereo not given)
4. CNS(=O)(=O)c1ccc(C)cc1
5. Cc1ccccc1-c1nn(-c2ccc(F)cc2F)cc1CNCCN(C)C
6. Cc1nc(C2CC(=O)OC23CCCCC3)cs1 (stereo not given)
7. Cc1coc2cc3oc(=O)c(CCC(=O)O)c(C)c3cc12

## Output
[-1.03, -2.65, 0.84, -0.67, -4.06, -0.47, 1.74]

* * *

For each entry below, report its inhibition value.
- measured.target: Protein-arginine deiminase type-4 (Homo sapiens) (UniProt Q9UM07)
- assay.method.text: blockers of protein arginine deiminase 4 – biochemical, fluorescence polarization, primary screen (AID 463073);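 note: 0% = PAD4 with DMSO and 100% = wells lacking PAD4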
- condition.details: recombinant PAD4, RFA probe fluorescence polarization; at 5 µM; hits give high values
Hit rate of the full screen: of about 2,000 compounds, about 10 (0.5%) were called active. What follows is part of a selection rich in actives, with near analogues and random picks from the rest.
Answers are plain numbers, in %.

{"compound": "COC(=O)c1[nH]c2ccc(F)cc2c1NC(=O)C1=COCCO1", "inhibition [%]": 6.4}
{"compound": "COc1ccc(C2(CCN=Cc3ccc(N(C)C)cc3)CCOC(C)(C)C2)cc1 (stereo unspecified)", "inhibition [%]": 4.88}
{"compound": "O=C(CSCc1ccccc1)NCCCN1CCOCC1", "inhibition [%]": -0.81}
{"compound": "CCOC(=O)c1cccc(C(=O)OCC)n1", "inhibition [%]": -2.55}
{"compound": "CCOC(=O)c1c(C)oc2c1C(=O)c1ccccc1C2=O", "inhibition [%]": 61.9}

Give me inhibition for each of these compounds, listed below.
1. CC1(C)CC(C(CC(=O)N2CCCC2)Cc2ccccc2)CCO1 (stereo unspecified)
2. Cc1[nH]c2ccccc2c1C(=O)CN1CCCC1
3. CC(=O)OC[C@H]1O[C@@H](Sc2cccc3cccnc23)[C@H](OC(C)=O)[C@@H](OC(C)=O)[C@H]1OC(C)=O

## Output
1: -1.3; 2: -1.81; 3: 1.27
